assay-system: Homeobox protein Hox-A13 (Mus musculus) (UniProt Q62424)
Sequence (Q62424 whole entry, looked up): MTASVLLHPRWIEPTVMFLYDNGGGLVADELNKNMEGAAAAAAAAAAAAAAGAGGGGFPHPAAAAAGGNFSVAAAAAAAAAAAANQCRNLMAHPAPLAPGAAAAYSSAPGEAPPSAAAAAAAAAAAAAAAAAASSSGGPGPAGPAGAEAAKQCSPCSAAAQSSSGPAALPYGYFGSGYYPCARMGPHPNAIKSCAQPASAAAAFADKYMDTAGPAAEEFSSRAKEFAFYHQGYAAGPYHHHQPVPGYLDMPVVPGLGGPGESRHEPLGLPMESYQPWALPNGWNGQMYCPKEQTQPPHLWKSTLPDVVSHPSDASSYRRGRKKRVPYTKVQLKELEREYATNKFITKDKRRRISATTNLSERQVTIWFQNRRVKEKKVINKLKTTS
experiment-description: disruptors of Hoxa13 oligonucleotide interaction – biochemical, fluorescence polarization, labeled oligonucleotide, primary screen (AID 1185)
condition-summary: Hoxa13:DNA binding, 15 min, higher = more signal, called active from +8 up or from −8 down
Parameter threshold = -4. Response is Met when z-score meets or exceeds it, else Not met.

Example entries begin here.
compound=C=CCNC(=O)[C@@H]1[C@H]2C(=O)O[C@H](c3ccccc3)[C@H](c3ccccc3)N2[C@H](c2ccc(OCCO)cc2)[C@@]12C(=O)N(C(=O)OCCOC)c1ccc(C#CCC(C(=O)OC)C(=O)OC)cc12 label_value=Met
compound="CCN(CC)c1ccc(N2CC=CC34O[C@@H]5/C=C\\CCC(C)OC(=O)C5[C@H]3C(=O)N(CCCCCO)[C@@H]4C2=O)cc1 (stereo partly specified)" label_value="Not met"
compound=Cc1ccc([C@H]2C(C(=O)O)=CCN2S(=O)(=O)c2ccc(C)cc2)cc1 label_value=Met
compound="CCCCCCCCCCC(O)C1C=CC2C(=O)NC(=O)C2N1Nc1ccc(Cl)cc1Cl (stereo unspecified)" label_value=Met
compound=COC(=O)c1c2oc(c1C(=O)OC)C(=O)N[C@@H](C(C)C)Cn1cc(nn1)C1(CCCCC1)NC(=O)N[C@H](CO)CC2 label_value=Met
compound=COc1ccc([Si](C)(C)[C@H]2[C@H](CCn3cc([C@H](O)c4ccccc4)nn3)O[C@@]3(C(=O)N(C)c4ccccc43)[C@@H]2C)cc1 label_value="Not met"
compound="O=C1C2C=CC(C(O)c3ccc(-c4ccccc4)s3)N(Nc3ccccc3)C2C(=O)N1c1ccccc1 (stereo unspecified)" label_value=Met
compound=C=CC[C@]1(C(N)=O)N=C(c2ccc(OCCCO)cc2)O[C@H]1c1ccccc1 label_value="Not met"
compound=C=C[C@H](C)[C@@H](OC(=O)Nc1ccc(SC)cc1)c1ccc(O)c2ccccc12 label_value="Not met"
compound=COc1ccc(CCNC(=O)[C@@]2(c3ccc([N+](=O)[O-])cc3)CC(=O)N(CC34CC5CC(CC(C5)C3)C4)[C@@H]2c2ccc(CO)cc2I)cc1 label_value=Met

Task item: Say whether O=C1C2C=CC(C(O)c3ccc4c(c3)OCO4)N(Nc3ccc([N+](=O)[O-])cc3)C2C(=O)N1c1ccccc1 (stereo unspecified) shows z-score of -4 or more.
Reply: Not met

Task item: Say whether OCC1C=C(/C=C/c2ccccc2)CN1Cc1ccccc1Br (stereo unspecified) shows z-score of -4 or more.
Reply: Met

Task item: Say whether O=C1NC(=O)C2C1C=CC(C(O)C1CC=CCC1)N2Nc1ccccn1 (stereo unspecified) shows z-score of -4 or more.
Reply: Met

Task item: Say whether NC(=O)[C@@]1(Cc2ccccc2)N=C(c2ccc(OCCCO)cc2)O[C@H]1c1ccccc1 shows z-score of -4 or more.
Reply: Not met

Task item: Say whether COCCCNC(=O)[C@@H]1c2ccccc2C(=O)N(Cc2ccccc2)[C@H]1c1ccc(CO)cc1 shows z-score of -4 or more.
Reply: Met

Task item: Say whether COC(=O)[C@@]1(Cc2ccc(OC)cc2)[C@H]2c3cc(C(=O)N4CCCC4)n(CCc4ccc(O)c(O)c4)c3C[C@H]2CN1C(=O)c1ccccc1 shows z-score of -4 or more.
Reply: Not met
